biological target: Escherichia coli DNA gyrase A/B tetramer (Escherichia coli (strain K12), UniProt P0AES4+P0AES6); experiment: DNA gyrase supercoiling activity fluorescence polarisation assay; format: biochemical
For each entry below, report its pIC50 value.
One number for each entry, as −log10 of the molar value.

Below are worked cases with known answers.
>>> measured_value("C[C@@H]1CN2c3c(cc4c(N5CCCCC5)noc4c3F)CC3(C(=O)NC(=O)NC3=O)[C@H]2[C@H](C)O1 (relative stereo)")
5.62
>>> measured_value("C[C@@H]1CN2c3c(cc4c(-n5cncn5)noc4c3F)CC3(C(=O)NC(=O)NC3=O)[C@H]2[C@H](C)O1 (racemic)")
5.55

For every listed record, write down its pIC50.
1. Cc1noc2c(F)c3c(cc12)CC1(C(=O)NC(=O)NC1=O)[C@H]1[C@H](C)C[C@H](C)CN31 (relative stereo)
2. Cc1noc2c(F)c3c(cc12)CC1(C(=O)NC(=O)NC1=O)[C@H]1[C@H](C)O[C@H](C)CN31 (relative stereo)
3. Cc1nnsc1-c1noc2c(F)c3c(cc12)CC1(C(=O)NC(=O)NC1=O)[C@H]1[C@H](C)O[C@H](C)CN31 (racemic)
4. C[C@@H]1CN2c3c(cc4c(OC(=O)OC(C)(C)C)noc4c3F)CC3(C(=O)NC(=O)NC3=O)[C@H]2[C@H](C)O1 (relative stereo)
5. C[C@@H]1CN2c3c(cc4c(C(N)=O)noc4c3F)CC3(C(=O)NC(=O)NC3=O)[C@H]2[C@H](C)O1 (relative stereo)
6. CC(C)NC(=O)c1noc2c(Cl)c3c(nc12)CC1(C(=O)NC(=O)NC1=O)[C@H]1[C@H](C)O[C@H](C)CN31 (relative stereo)

Reply:
1. 6.52
2. 6.40
3. 6.05
4. 5.57
5. 6.52
6. 4.72

----------
target: Escherichia coli DNA gyrase A/B tetramer (Escherichia coli (strain K12), UniProt P0AES4+P0AES6); assay: DNA gyrase supercoiling activity fluorescence polarisation assay; type: biochemical; details: 5 nM enzyme, relaxed plasmid, 0.3 mM ATP, ambient temperature; read-out: E. coli DNA gyrase supercoiling IC50
pIC50: −log10 of the molar value.
So basically: pIC50 at 6 or higher? That is y. Lower than 6? That is n.

>>> assigned_category("C[C@@H]1CN2c3c(cc4c(C(=O)NCc5ccnn5C)noc4c3F)CC3(C(=O)NC(=O)NC3=O)[C@H]2[C@H](C)O1 (racemic)")
"n"
>>> assigned_category("Cc1cc(CNc2noc3c(F)c4c(cc23)CC2(C(=O)NC(=O)NC2=O)[C@H]2[C@H](C)O[C@H](C)CN42)no1 (relative stereo)")
"n"

Ask: Could you verify whether the entry C[C@@H]1CN2c3c(cc4c(-n5cc(Cl)cn5)noc4c3F)CC3(C(=O)NC(=O)NC3=O)[C@H]2[C@H](C)O1 (relative stereo) shows pIC50 of no less than 6?
Reply: n

Ask: Request: C[C@@H]1CN2c3c(cc4c(-c5ccnnc5)noc4c3Cl)CC3(C(=O)NC(=O)NC3=O)[C@H]2[C@H](C)O1 (relative stereo)
Reply: n

Ask: Request: Cc1noc2c(Cl)c3c(cc12)CC1(C(=O)NC(=O)NC1=O)[C@H]1[C@H](C)O[C@H](C)CN31 (relative stereo)
Reply: y

Origin of values: patent US9040528B2
